Catalogue of DTm values
- measuredTarget: InhA (Mycobacterium tuberculosis, UniProt P9WGR1)
- Sequence (P9WGR1 whole entry, looked up): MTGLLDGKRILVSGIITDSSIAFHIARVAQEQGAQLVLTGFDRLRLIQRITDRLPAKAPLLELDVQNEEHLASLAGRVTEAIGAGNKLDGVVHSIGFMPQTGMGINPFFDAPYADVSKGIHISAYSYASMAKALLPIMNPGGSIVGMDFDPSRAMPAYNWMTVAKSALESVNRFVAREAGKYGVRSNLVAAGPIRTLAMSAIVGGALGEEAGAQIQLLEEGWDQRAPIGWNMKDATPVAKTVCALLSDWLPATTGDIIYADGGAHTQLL
- testSummary: Differential scanning fluorimetry (fluorescence-based thermal-shift assay)
- Format: binding
The answer is to be given in oC; state only the numeric part.

May I ask what DTm has been recorded for O=C(O)/C=C/c1cccc(C(F)(F)F)c1 ?
3.2

Return reported DTm; argument: O=C(O)c1ccccc1C(=O)c1ccc(Cl)c([N+](=O)[O-])c1
4.2

Which DTm value is on record for O=C(O)CCc1cccc(Cl)c1 ?
3

Request the reported DTm associated with O=C(O)c1ccccc1-n1cccn1
6

# query: DTm of entry O=C(O)c1cc2ccccc2cc1O [compound 3, 3-hydroxy-2-naphthoic acid]
4.2
